- Target Or System: Vascular endothelial growth factor A, long form (Homo sapiens, UniProt P15692)
- Sequence (P15692 whole entry): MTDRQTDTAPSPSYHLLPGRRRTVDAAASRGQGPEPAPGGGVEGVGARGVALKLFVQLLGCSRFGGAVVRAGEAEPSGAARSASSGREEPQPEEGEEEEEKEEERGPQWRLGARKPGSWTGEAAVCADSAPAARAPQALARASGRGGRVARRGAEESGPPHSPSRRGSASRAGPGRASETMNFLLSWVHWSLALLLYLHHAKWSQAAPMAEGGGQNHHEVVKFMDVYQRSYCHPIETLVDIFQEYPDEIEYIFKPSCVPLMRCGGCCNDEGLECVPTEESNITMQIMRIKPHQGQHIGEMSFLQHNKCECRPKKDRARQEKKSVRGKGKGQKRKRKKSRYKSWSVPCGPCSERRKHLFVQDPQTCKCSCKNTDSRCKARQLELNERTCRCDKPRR
- Experiment Description: Binding affinity to recombinant VEGFA (unknown origin) measured for 60 seconds by surface plasmon resonance assay
- Condition: read-out: Kd
Recorded Kd, one value per entry.
Quick note: give the figure in nM, leave out the unit.

Before answering, review these 3 worked examples.
Compound	Numeric Value
Oc1cc(O)c2c(c1)O[C@@]1(c3ccc(O)c(O)c3)Oc3cc(O)c4c(c3[C@@H]2[C@H]1O)O[C@H](c1ccc(O)c(O)c1)[C@@H](O)C4 [PROANTHOCYANIDIN A1]	476
Oc1ccc([C@@H]2C[C@@H](c3c(O)cc(O)c4c3O[C@H](c3ccc(O)cc3)[C@@H](O)C4)c3c(O)cc(O)cc3O2)cc1	16
O=c1cc(-c2ccc(O)c(-c3c(O)cc(O)c4c(=O)cc(-c5ccc(O)cc5)oc34)c2)oc2cc(O)cc(O)c12 [AMENTOFLAVONE]	16.5

If you can, please state the reported Kd value of Oc1ccc([C@H]2Oc3c(c(O)cc4c3[C@H]3c5c(O)cc(O)cc5O[C@@](c5ccc(O)c(O)c5)(O4)[C@@H]3O)C[C@@H]2O)cc1 [GERANIN B] .
48
